Cited source for all entries: patent US20190134153A1

Target: PDGFRβ(h) (Homo sapiens, UniProt P09619)
Sequence (P09619 33-1106): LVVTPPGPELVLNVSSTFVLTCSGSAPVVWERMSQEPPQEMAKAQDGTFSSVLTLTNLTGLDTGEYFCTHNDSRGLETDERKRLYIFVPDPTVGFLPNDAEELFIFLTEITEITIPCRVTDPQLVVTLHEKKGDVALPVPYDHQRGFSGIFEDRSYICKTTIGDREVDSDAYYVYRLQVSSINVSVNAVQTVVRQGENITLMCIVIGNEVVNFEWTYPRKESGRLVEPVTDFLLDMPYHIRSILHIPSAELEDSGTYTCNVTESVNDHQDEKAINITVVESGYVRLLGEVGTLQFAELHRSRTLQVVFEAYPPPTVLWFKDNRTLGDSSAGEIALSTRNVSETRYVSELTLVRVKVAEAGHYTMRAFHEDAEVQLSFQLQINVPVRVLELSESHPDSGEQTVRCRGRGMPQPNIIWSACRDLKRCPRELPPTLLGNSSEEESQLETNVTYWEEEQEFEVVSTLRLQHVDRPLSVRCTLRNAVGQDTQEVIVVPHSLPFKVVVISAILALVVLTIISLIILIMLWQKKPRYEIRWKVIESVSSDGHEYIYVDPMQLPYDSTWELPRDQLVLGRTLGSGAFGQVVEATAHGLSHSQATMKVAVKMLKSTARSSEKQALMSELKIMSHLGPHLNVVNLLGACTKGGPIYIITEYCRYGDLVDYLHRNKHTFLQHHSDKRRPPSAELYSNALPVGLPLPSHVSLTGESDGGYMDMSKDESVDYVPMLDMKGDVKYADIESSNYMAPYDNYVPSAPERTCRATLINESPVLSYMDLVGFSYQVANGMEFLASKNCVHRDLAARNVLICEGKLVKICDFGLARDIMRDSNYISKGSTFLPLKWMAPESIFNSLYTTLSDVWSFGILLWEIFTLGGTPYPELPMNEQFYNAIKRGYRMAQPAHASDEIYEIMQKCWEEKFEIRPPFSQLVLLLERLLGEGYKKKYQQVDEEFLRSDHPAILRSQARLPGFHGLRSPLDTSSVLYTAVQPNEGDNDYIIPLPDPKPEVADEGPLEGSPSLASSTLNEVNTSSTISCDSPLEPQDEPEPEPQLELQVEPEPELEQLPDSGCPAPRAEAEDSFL
Test: Kinase Profiling Assay
Type: biochemical
Details: 100 μM
parameter-measured: % activity (%)
Report only the number, with the unit % understood.

Sample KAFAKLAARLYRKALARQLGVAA [MMI-0400] — what was its % activity?
53

Sample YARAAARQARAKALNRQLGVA [MMI-0200] — what was its % activity?
137

Sample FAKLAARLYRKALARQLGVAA [MMI-0300] — what was its % activity?
81

Sample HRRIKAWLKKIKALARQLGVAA [MMI-0500] — what was its % activity?
40

###

Recorded % activity by entry
Molecular target: SAPK2b(h) (Homo sapiens)
Sequence (Q15759 whole entry): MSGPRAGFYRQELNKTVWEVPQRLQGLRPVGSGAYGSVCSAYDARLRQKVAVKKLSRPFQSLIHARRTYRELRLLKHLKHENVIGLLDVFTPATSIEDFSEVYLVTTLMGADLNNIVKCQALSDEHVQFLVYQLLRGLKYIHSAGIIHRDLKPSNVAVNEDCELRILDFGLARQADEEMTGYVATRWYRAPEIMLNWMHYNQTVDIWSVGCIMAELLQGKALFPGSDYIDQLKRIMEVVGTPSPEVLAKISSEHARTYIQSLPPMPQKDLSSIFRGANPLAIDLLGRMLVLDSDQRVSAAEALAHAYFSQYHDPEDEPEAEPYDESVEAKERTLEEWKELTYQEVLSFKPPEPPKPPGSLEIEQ
Assay: Kinase Profiling Assay
Format: biochemical
Details: 100 μM
Report only the number, with the unit % understood.

Solved entries:
>  <residues>
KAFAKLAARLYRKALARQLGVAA [MMI-0400]

>  <% activity / %>
82

$$$$
>  <residues>
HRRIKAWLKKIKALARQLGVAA [MMI-0500]

>  <% activity / %>
42

$$$$
>  <residues>
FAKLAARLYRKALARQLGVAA [MMI-0300]

>  <% activity / %>
81

$$$$

Sample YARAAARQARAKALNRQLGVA [MMI-0200] — what was its % activity?
95
